Cited source: patent US20200239573A1

# EXPERIMENTAL TARGET: human PD-1 expressed on cells (CHO human PD-1 cells) (human, UniProt Q15116 21-288)
# Sequence (Q15116 21-288): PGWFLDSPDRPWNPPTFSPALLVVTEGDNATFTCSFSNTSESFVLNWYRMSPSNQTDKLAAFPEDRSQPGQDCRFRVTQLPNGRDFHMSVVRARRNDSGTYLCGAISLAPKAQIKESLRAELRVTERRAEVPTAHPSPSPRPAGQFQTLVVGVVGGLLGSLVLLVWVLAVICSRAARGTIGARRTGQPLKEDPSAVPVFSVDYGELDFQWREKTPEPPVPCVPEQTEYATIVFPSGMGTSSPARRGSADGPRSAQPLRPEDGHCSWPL
# TEST NAME: cell-based or functional assay
I'd be grateful if you could share measured Reporter Assay EC50 for these entries.
Numbers only, in µM.

# BINDER, Reporter Assay EC50 / µM
rows = [
    ("Humabody® 1.67 (VHH) VHH: QVQLVESGGGLVKPGGSLRLSCAASGFTFSGSSMTWMRQAPGKGLEWVSYISSGGGVIFYADSVKGRFTISRDNAKNSLYLQMNSLRADDTAVYYCAREAPLRLGESPHDAFDISGQGTMVTVSS", 0.012),
]

Kindly review the next binder as well.
Value of measured Reporter Assay EC50 for the entry Humabody® 1.64 (VHH, human VH single domain antibody) VHH: EVQLVESGGGLVKPGGSLRLSCAASGFTFSDSSMTWMRQAPGKGLEWVSYISSGGGVKFYADSVKGRFTISRDNAKNSLYLQMNSLRADDTAVYYCAREAPLRLGESPHDAFDISGQGTMVTVSS : 0.025
